# measured.target: DvPMT1 (Dictyocaulus viviparus, UniProt A0A0D8Y714)
# Sequence (A0A0D8Y714 entry or part of it): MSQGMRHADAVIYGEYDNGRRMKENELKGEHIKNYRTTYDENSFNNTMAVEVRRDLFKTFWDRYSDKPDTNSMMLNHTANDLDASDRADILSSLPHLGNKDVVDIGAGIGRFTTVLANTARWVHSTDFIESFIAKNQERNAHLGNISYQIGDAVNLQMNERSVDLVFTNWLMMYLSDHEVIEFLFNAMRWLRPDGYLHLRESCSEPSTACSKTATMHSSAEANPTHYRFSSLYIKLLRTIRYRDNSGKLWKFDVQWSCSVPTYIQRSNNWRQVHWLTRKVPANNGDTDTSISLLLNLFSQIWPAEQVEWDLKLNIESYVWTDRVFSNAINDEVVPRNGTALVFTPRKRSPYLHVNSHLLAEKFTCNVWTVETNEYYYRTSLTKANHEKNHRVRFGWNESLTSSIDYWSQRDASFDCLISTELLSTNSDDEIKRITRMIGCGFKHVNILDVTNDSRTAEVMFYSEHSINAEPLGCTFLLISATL
# assay.text: biochemical
# Format: biochemical
# measurement.context: read-out: Mean IC50 ± SEM, Enzyme DvPMT1
# Description: The chemical compounds were obtained from the National Cancer Institute/Developmental Therapeutics Program Open Chemical Repository. […] Detection buffer (100 μL) containing fluorescence substrate was added into each reaction mixture. […] The plates were covered in aluminum foil and incubated at room temperature with agitation for 30 min, followed by reading the fluorescence at 380EX/520EM. […]
For each record, write down the corresponding IC50.
Expressed in µM, but write only the number.

input: So what's the measured IC50 for this one? O=c1c(O)cccc2cc(O)c(O)c(O)c12 [NSC35676, purpurogallin]
output: 42.1

input: Next record, please: COc1cc(C)c2c(c1C=O)Oc1c(c(C)c(O)c3c1C(O)OC3=O)OC2=O (stereo not drawn) [NSC87511]
output: 504

input: How about this compound: CO[C@H]1/C=C/O[C@@]2(C)Oc3c(C)c(O)c4c(O)c(cc(O)c4c3C2=O)NC(=O)/C(C)=C\C=C\[C@H](C)[C@H](O)[C@@H](C)[C@@H](O)[C@@H](C)[C@H](OC(C)=O)[C@@H]1C [NSC133100]
output: 88.2

input: Moving on to the next compound: COc1ccc(-c2c(C)c(C(=O)O)nc(-c3ccc4c(O)c(OC)c5c(c4n3)=NC(C)(C)N=5)c2N)c(O)c1OC [NSC62709]
output: 29.2

input: Also, CO[C@@H]1/C=C/O[C@@]2(C)Oc3c(C)c(O)c4c(c3C2=O)C(=N[C@@H]2CC[C@@H](O)O[C@H]2C)C=C(NC(=O)/C(C)=C\C(=O)[C@@H]2C[C@@H]2[C@H](O)[C@@H](C)[C@@H](O)[C@@H](C)[C@H](OC(C)=O)[C@@H]1C)C4=O [NSC177383] please.
output: 47.6

input: Now this one: CO[C@@H]1/C=C\O[C@]2(C)Oc3c(C)c(O)c4c(O)c(c(CN(C)C)c(O)c4c3C2=O)NC(=O)/C(C)=C\C=C[C@@H](C)[C@@H](O)[C@H](C)[C@@H](O)[C@H](C)[C@H](OC(C)=O)[C@@H]1C [NSC145612]
output: 55.1

* * *

Please provide measured Selectivity index (SI) OdPMT for the entries that follow.
# measured.target: OdPMT (Oesophagostomum dentatum, UniProt A0A0B1TAL6)
# Sequence (A0A0B1TAL6 entry or part of it): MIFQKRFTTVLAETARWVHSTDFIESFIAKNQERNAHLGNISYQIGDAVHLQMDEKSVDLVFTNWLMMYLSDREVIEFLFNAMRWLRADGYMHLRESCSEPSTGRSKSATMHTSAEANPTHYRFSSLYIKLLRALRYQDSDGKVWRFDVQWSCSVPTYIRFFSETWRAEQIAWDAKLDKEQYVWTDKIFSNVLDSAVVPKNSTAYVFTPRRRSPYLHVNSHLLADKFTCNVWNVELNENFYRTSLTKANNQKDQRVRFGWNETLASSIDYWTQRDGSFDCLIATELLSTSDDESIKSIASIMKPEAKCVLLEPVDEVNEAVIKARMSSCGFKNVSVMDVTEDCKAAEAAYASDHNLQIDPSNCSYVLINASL
# assay.text: biochemical
# Format: biochemical
# measurement.context: IC50^Cytotoxicity/IC50^Enzyme
Response field accepts a number only; no unit should be typed.

input: Recorded Selectivity index (SI) OdPMT of O=c1c(O)cccc2cc(O)c(O)c(O)c12 [NSC35676, purpurogallin] , please.
output: 33.80

input: Try this compound next: COc1cc(C)c2c(c1C=O)Oc1c(c(C)c(O)c3c1C(O)OC3=O)OC2=O (stereo not shown) [NSC87511]
output: 0.35

input: What about CO[C@H]1/C=C/O[C@@]2(C)Oc3c(C)c(O)c4c(O)c(cc(O)c4c3C2=O)NC(=O)/C(C)=C\C=C\[C@H](C)[C@H](O)[C@@H](C)[C@@H](O)[C@@H](C)[C@H](OC(C)=O)[C@@H]1C [NSC133100] ?
output: 1.07

input: What do we get for CO[C@@H]1/C=C/O[C@@]2(C)Oc3c(C)c(O)c4c(c3C2=O)C(=N[C@@H]2CC[C@@H](O)O[C@H]2C)C=C(NC(=O)/C(C)=C\C(=O)[C@@H]2C[C@@H]2[C@H](O)[C@@H](C)[C@@H](O)[C@@H](C)[C@H](OC(C)=O)[C@@H]1C)C4=O [NSC177383] ?
output: 3.20

input: How about this compound: CO[C@@H]1/C=C\O[C@]2(C)Oc3c(C)c(O)c4c(O)c(c(CN(C)C)c(O)c4c3C2=O)NC(=O)/C(C)=C\C=C[C@@H](C)[C@@H](O)[C@H](C)[C@@H](O)[C@H](C)[C@H](OC(C)=O)[C@@H]1C [NSC145612]
output: 9.11

input: Same for COc1ccc(-c2c(C)c(C(=O)O)nc(-c3ccc4c(O)c(OC)c5c(c4n3)=NC(C)(C)N=5)c2N)c(O)c1OC [NSC62709]
output: 9.39

input: Entry CO[C@@]12[C@H](COC(N)=O)C3=C(C(=O)C(C)=C(N)C3=O)N1C[C@H]1[C@@H]2N1C (stereo partly shown) [NSC56410] please
output: 0.90

* * *

# assay.text: WST-1 cytotoxicity assay in HCT-8 cells
# Format: cell-based, human
# measurement.context: human, HCT-8 cells (human ileocecal colorectal adenocarcinoma), read-out: Mean IC50 ± SEM, Cytotoxicity
Could you please report measured IC50 at 24 h for the items listed next?
// unit must come after the numeric part

input: Could you share which IC50 at 24 h value was measured for O=c1c(O)cccc2cc(O)c(O)c(O)c12 ?
output: 566 µM

input: Try the compound CO[C@@]12[C@H](COC(N)=O)C3=C(C(=O)C(C)=C(N)C3=O)N1C[C@H]1[C@@H]2N1C (some centres unmarked)
output: 188 µM

* * *

# Test system: OdPMT-complemented pem1Δ/pem2Δ S. cerevisiae
# assay.text: Growth inhibition of complemented yeast
# Type: cell-based, Saccharomyces cerevisiae
# measurement.context: medium with ethanolamine, no choline, day 3; read-out: Mean growth inhibition EC50 ± SEM on complemented yeast, OdPMT
reported.property: EC50 (µM)
Lab book: enter the figure in µM, no units written.

input: Which EC50 value is on record for COc1cc(C)c2c(c1C=O)Oc1c(c(C)c(O)c3c1C(O)OC3=O)OC2=O (centres unmarked) [NSC87511] ?
output: 57.9

input: Then CO[C@H]1/C=C/O[C@@]2(C)Oc3c(C)c(O)c4c(O)c(cc(O)c4c3C2=O)NC(=O)/C(C)=C\C=C\[C@H](C)[C@H](O)[C@@H](C)[C@@H](O)[C@@H](C)[C@H](OC(C)=O)[C@@H]1C [NSC133100] ?
output: 36.6

input: Same read-out for CO[C@@H]1/C=C\O[C@]2(C)Oc3c(C)c(O)c4c(O)c(c(CN(C)C)c(O)c4c3C2=O)NC(=O)/C(C)=C\C=C[C@@H](C)[C@@H](O)[C@H](C)[C@@H](O)[C@H](C)[C@H](OC(C)=O)[C@@H]1C [NSC145612] ?
output: 32.8

input: Input COc1ccc(-c2c(C)c(C(=O)O)nc(-c3ccc4c(O)c(OC)c5c(c4n3)=NC(C)(C)N=5)c2N)c(O)c1OC [NSC62709]
output: 19.5

input: // same read-out, input: CO[C@@H]1/C=C/O[C@@]2(C)Oc3c(C)c(O)c4c(c3C2=O)C(=N[C@@H]2CC[C@@H](O)O[C@H]2C)C=C(NC(=O)/C(C)=C\C(=O)[C@@H]2C[C@@H]2[C@H](O)[C@@H](C)[C@@H](O)[C@@H](C)[C@H](OC(C)=O)[C@@H]1C)C4=O [NSC177383]
output: 19.8

* * *

So I've got a bunch of compounds here, and I need their EC50 values.
# System: OdPMT-complemented pem1Δ/pem2Δ S. cerevisiae
# assay.text: Growth inhibition of complemented yeast
# Type: cell-based, Saccharomyces cerevisiae
# measurement.context: Saccharomyces cerevisiae, 72 h, read-out: Mean growth inhibition EC50 ± SEM on complemented yeast, OdPMT
Provide only the numeric value, understood in µM.

input: Name the recorded EC50 for O=c1c(O)cccc2cc(O)c(O)c(O)c12 .
output: 3.98

input: Now try CO[C@@]12[C@H](COC(N)=O)C3=C(C(=O)C(C)=C(N)C3=O)N1C[C@H]1[C@@H]2N1C (some centres unmarked) .
output: 37.6

* * *

# measured.target: UniProtKB A0A0B1TAL6
# assay.text: biochemical
# Type: biochemical
# measurement.context: read-out: Mean IC50 ± SEM, Enzyme OdPMT
reported.property: pIC50
// pIC50 is dimensionless: -log10 of concentration (M)

input: Would you mind telling me what pIC50 value was observed for O=c1c(O)cccc2cc(O)c(O)c(O)c12 [NSC35676, purpurogallin] ?
output: 4.78

input: // query: CO[C@@H]1/C=C/O[C@@]2(C)Oc3c(C)c(O)c4c(c3C2=O)C(=N[C@@H]2CC[C@@H](O)O[C@H]2C)C=C(NC(=O)/C(C)=C\C(=O)[C@@H]2C[C@@H]2[C@H](O)[C@@H](C)[C@@H](O)[C@@H](C)[C@H](OC(C)=O)[C@@H]1C)C4=O [NSC177383]
output: 4.57

input: One more compound: COc1ccc(-c2c(C)c(C(=O)O)nc(-c3ccc4c(O)c(OC)c5c(c4n3)=NC(C)(C)N=5)c2N)c(O)c1OC [NSC62709]
output: 4.50

input: Another compound to check: CO[C@H]1/C=C/O[C@@]2(C)Oc3c(C)c(O)c4c(O)c(cc(O)c4c3C2=O)NC(=O)/C(C)=C\C=C\[C@H](C)[C@H](O)[C@@H](C)[C@@H](O)[C@@H](C)[C@H](OC(C)=O)[C@@H]1C [NSC133100]
output: 4.02

input: Now give it for COc1cc(C)c2c(c1C=O)Oc1c(c(C)c(O)c3c1C(O)OC3=O)OC2=O (stereo not drawn) [NSC87511] too.
output: 3.31

input: Now consider CO[C@@H]1/C=C\O[C@]2(C)Oc3c(C)c(O)c4c(O)c(c(CN(C)C)c(O)c4c3C2=O)NC(=O)/C(C)=C\C=C[C@@H](C)[C@@H](O)[C@H](C)[C@@H](O)[C@H](C)[C@H](OC(C)=O)[C@@H]1C [NSC145612] and answer again.
output: 4.48

Every entry's value here was drawn from paper PMC10269165.
